Run description: gradient 5% acetonitrile 3 min, to 50% in 2 min, to 85% in 15 min, held 3 min, 100 µL/min
Recorded conditions: column: Zorbax Extend-C18 2.1 x 50 mm; eluents: water / acetonitrile, 0.1% formic acid
Measured property: RP-LC retention time (s)
One number for each entry, in s.

Please go through the list and note RP-LC retention time for each compound.
1. COc1ccc(Cn2c(=O)c3sccc3n(Cc3nc(-c4ccc(SC)cc4)no3)c2=O)cc1
2. Cc1ccc(C)c(CNC(=O)Cc2csc3nc(-c4ccc(C)c(C)c4)cn23)c1
3. O=C(NC1CCN(c2cc(-c3cccs3)[nH]n2)C1)c1cccc(Cl)c1 (configuration not stated)
4. CCc1ccc(-c2cc(C(=O)N3CCCN(c4cc(=O)n(C(C)C)c(=O)n4C(C)C)CC3)[nH]n2)cc1
5. Cc1sc(-c2cc(C(F)(F)F)on2)cc1S(=O)(=O)NCc1ccccc1
6. O=C(c1nc2ccccc2s1)N1CCN(Cc2nc(-c3ccc(F)cc3)cs2)CC1
7. CCOC(=O)C(=O)NCC1CCC(c2nc3ccccc3n2C)CC1 (configuration not stated)

# output
[1160, 930, 719, 946, 1110, 882, 552]

* * *

Run description: gradient 5% acetonitrile 3 min, to 50% in 2 min, to 85% in 15 min, held 3 min, 100 µL/min
Recorded conditions: column: Zorbax Extend-C18 2.1 x 50 mm; eluents: water / acetonitrile, 0.1% formic acid
So basically: RP-LC retention time at 900 s or higher? That is yes. Lower than 900 s? That is no.

Compound | Qualitative label
CCc1nccn1Cc1noc(-c2ccccc2C)n1 | no

Then there is this compound:
# input # check: RP-LC retention time of O=c1ccc(-c2cccc(Br)c2)nn1Cc1nc(-c2cccs2)no1 is greater than or equal to 900 s
# output yes

* * *

Run description: gradient 5% acetonitrile 3 min, to 50% in 2 min, to 85% in 15 min, held 3 min, 100 µL/min
Recorded conditions: column: Zorbax Extend-C18 2.1 x 50 mm; eluents: water / acetonitrile, 0.1% formic acid
Entries are sorted into classes by RP-LC retention time as follows: class A (below 700 s), class B (700 s to below 900 s), class C (900 s or more)

Before answering, review these 10 worked examples.
Compound | Qualitative label
CC1CN(Cc2nc3c(c(=O)n(C)c(=O)n3C)n2CC(=O)c2ccccc2)CC(C)O1 (stereo not given) | class A
COc1ccc(CC(=O)NC(C(=O)Nc2nc3ccccc3[nH]2)C(C)C)c(Cl)c1 (stereo not given) | class B
O=C(Nc1cnc(N2CCCCCC2)nc1)c1cccs1 | class B
O=C(NC1CC1)[C@@H]1C[C@H](Oc2ccccc2)CN1C(=O)c1ccsc1 | class B
Cc1cc(=O)n(CC(=O)N2CCc3ccccc32)c(N2CCOCC2)n1 | class A
COc1ccc(S(=O)(=O)N2CCC(c3noc(-c4ccccc4C)n3)CC2)cc1OC | class C
COc1ccccc1C(=O)NCc1ccc2c(c1)ncn2C(C)C | class A
COC(=O)c1cc(OCC(=O)Nc2ccccc2F)c2cc(OC)c(OC)cc2n1 | class B
Cc1nc(-c2ccccc2)sc1C(=O)N1CCN(c2ccc(-n3ccnc3C)nn2)CC1 | class A
Cc1ccccc1Cn1nc2ccc(S(=O)(=O)N3CCC(C)CC3)cn2c1=O | class C

# input Please let me know in which category the item Cn1cc(C(=O)N2CC(c3noc(C4CCCN4CC4CC4)n3)C2)cn1 (stereo not given) belongs.
# output class A

# input Please let me know in which category the item COc1ccc(-c2csc(NC(=O)CCn3c(=O)sc4ccccc43)n2)cc1 belongs.
# output class C

# input Please let me know in which category the item Cc1ccc(CC(=O)NC2CCN(c3cc(-c4cccs4)[nH]n3)C2)cc1 (stereo not given) belongs.
# output class B

# input Please let me know in which category the item CC(C)Cn1cc(S(=O)(=O)NCc2ccccc2Cl)c2cccnc21 belongs.
# output class C

* * *

Run description: gradient 5% acetonitrile 3 min, to 50% in 2 min, to 85% in 15 min, held 3 min, 100 µL/min
Recorded conditions: column: Zorbax Extend-C18 2.1 x 50 mm; eluents: water / acetonitrile, 0.1% formic acid
So basically: RP-LC retention time at 800 s or higher? That is 1. Lower than 800 s? That is 0.

Compound | Qualitative label
COCCCNC(=O)C1c2ccccc2C(=O)N(C2CCCC2)C1c1cccs1 (stereo not drawn) | 1

# input # check: RP-LC retention time of Cc1ccc(Nc2cc(-n3ccnc3)ncn2)cc1 is greater than or equal to 800 s
# output 0

# input # check: RP-LC retention time of CC(C)c1cc(C2CCCN2C(=O)c2ccccc2)no1 (stereo not drawn) is greater than or equal to 800 s
# output 1

# input # check: RP-LC retention time of O=C(CCC1CCCC1)Nc1cccc(-c2nnc3n2CCCC3)c1 is greater than or equal to 800 s
# output 0

# input # check: RP-LC retention time of CCCC(C(=O)O)c1c(C)nc2ccc(Cl)cc2c1-c1ccccc1 (stereo not drawn) is greater than or equal to 800 s
# output 1

# input # check: RP-LC retention time of CCOC(=O)c1cc(S(=O)(=O)N2CCCC2C(=O)Nc2cccc(C(F)(F)F)c2)cn1C (stereo not drawn) is greater than or equal to 800 s
# output 1

# input # check: RP-LC retention time of O=C(c1ccc2cc[nH]c2c1)N1CCN(c2cc(-c3ccccc3)[nH]n2)CC1 is greater than or equal to 800 s
# output 0

# input # check: RP-LC retention time of COC(=O)c1c(C)[nH]c(C(=O)N2CCC(CC(=O)NCc3ccc(OC)cc3)CC2)c1C is greater than or equal to 800 s
# output 0

# input # check: RP-LC retention time of O=C(NC(c1ccccc1)c1nnc(N2CCCC2)o1)c1cccc(Cl)c1 (stereo not drawn) is greater than or equal to 800 s
# output 1

# input # check: RP-LC retention time of CCCCOCCCNCc1ccc2c(c1)n(C)c(=O)n2C is greater than or equal to 800 s
# output 0

# input # check: RP-LC retention time of Cc1[nH]c(C(=O)N2CCC(CC(=O)NCc3cccc(F)c3)CC2)c(C)c1C(=O)OC(C)C is greater than or equal to 800 s
# output 1

# input # check: RP-LC retention time of Cc1noc(-c2ccc(OC3CN(C(=O)NCc4ccc(F)cc4)C3)cc2)n1 is greater than or equal to 800 s
# output 1

# input # check: RP-LC retention time of CCn1c(C2CCN(C(=O)c3ccoc3)C2)nc2cccnc21 (stereo not drawn) is greater than or equal to 800 s
# output 0

# input # check: RP-LC retention time of COCCNC(=O)NC1CCN(C2=NS(=O)(=O)C(c3cccc(Cl)c3)=C2C)CC1 is greater than or equal to 800 s
# output 0

# input # check: RP-LC retention time of O=C(c1ccco1)N1CCCC(c2ccnc(-c3ccccc3)n2)C1 (stereo not drawn) is greater than or equal to 800 s
# output 1

# input # check: RP-LC retention time of CCC(=O)Nc1ccc(OCc2cc(C(=O)NC3CCC(C)CC3)no2)cc1 (stereo not drawn) is greater than or equal to 800 s
# output 0

# input # check: RP-LC retention time of Cc1ccc(-c2nc(Cn3ccnc3C)no2)cc1 is greater than or equal to 800 s
# output 0

# input # check: RP-LC retention time of COc1ccc(NC(=O)N2CCC3(CC2)N=C(c2cccc(Cl)c2)C(=O)N3)c(OC)c1 is greater than or equal to 800 s
# output 1

# input # check: RP-LC retention time of Cc1ccc(-c2nc(-c3ccc4ncn(C)c4c3)no2)cc1C is greater than or equal to 800 s
# output 1

# input # check: RP-LC retention time of Cc1ccc(-n2cccc2CC(=O)NC2CCCCC2)cc1 is greater than or equal to 800 s
# output 1

* * *

Run description: gradient 5% acetonitrile 3 min, to 50% in 2 min, to 85% in 15 min, held 3 min, 100 µL/min
Recorded conditions: column: Zorbax Extend-C18 2.1 x 50 mm; eluents: water / acetonitrile, 0.1% formic acid
Please go through the items and note down their RP-LC retention time.
One number for each entry, in s.

Answered examples (3):
Molecule | Uom | RP-LC retention time
COCCn1cc2c3c(cccc31)CN(C(=O)NCc1ccc(F)cc1)CC2 | s | 842
CC(C)c1noc(-c2cccnc2N2CCCN(Cc3cccc(F)c3)CC2)n1 | s | 708
COc1ccc(NC(=O)CCc2cccc3[nH]ccc23)c(OC)c1 | s | 831

Please go through the list and note RP-LC retention time for each molecule.
1. COc1ccc(NC(=O)Cn2ccc3c(=O)n(C)c(=O)n(C)c32)c(OC)c1
2. CCOC(=O)c1cnc(N2CCN(c3cccc(Cl)c3)CC2)c2ccccc12
3. Cn1c(=O)c2ccn(CC(=O)N3CCC(Cc4ccccc4)CC3)c2n(C)c1=O
4. O=C(Cn1cnc2nc(N3CCC(C(=O)NC4CC4)CC3)sc2c1=O)NCc1cccs1
5. CCc1noc(C2CCCCN2C(=O)c2c[nH]c3ccccc23)n1 (stereo not given)
6. O=C(NCc1ccc2c(c1)OCO2)C1CC(=O)N(CCc2c[nH]c3ccc(F)cc23)C1 (stereo not given)

# output
1. 665
2. 652
3. 782
4. 618
5. 647
6. 766
